Recorded protein stability index by entry
B1: ZNF263 (parent)
chain: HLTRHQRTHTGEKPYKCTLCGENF

- Variants of: B1
- protocol-notes: protein stability index of a GFP-peptide fusion (GPS, HEK-293T) (PSI 1-6); higher = more stable;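 note: lentivirally expressed fusions sorted by FACS into six bins by GFP to DsRed ratio, PSI derived from sequencing read proportions per bin multiplied by bin number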
- details: c terminus: a fixed tail appended
Give your answer as a number; write no unit.

Consider the following illustrative entries.
| alteration | protein stability index |
| --- | --- |
| T10K | 3.12 |
| G21K | 3.42 |

Prompt: Field request: protein stability index | item: "L19V"
Completion: 2.86

Prompt: Field request: protein stability index | item: "G11V"
Completion: 2.38

Prompt: Field request: protein stability index | item: "T3K"
Completion: 3.1

Prompt: Field request: protein stability index | item: "Y15R"
Completion: 2.93

Prompt: Field request: protein stability index | item: "K13R"
Completion: 2.98

Prompt: Field request: protein stability index | item: "T8C"
Completion: 2.99

Prompt: Field request: protein stability index | item: "T18G"
Completion: 2.45

Prompt: Field request: protein stability index | item: "T3G"
Completion: 2.3

Prompt: Field request: protein stability index | item: "K13M"
Completion: 2.56

Reference for the values: the supplement of paper PMC10567573
